Biological target: UniProt:P00748
Sequence (whole entry): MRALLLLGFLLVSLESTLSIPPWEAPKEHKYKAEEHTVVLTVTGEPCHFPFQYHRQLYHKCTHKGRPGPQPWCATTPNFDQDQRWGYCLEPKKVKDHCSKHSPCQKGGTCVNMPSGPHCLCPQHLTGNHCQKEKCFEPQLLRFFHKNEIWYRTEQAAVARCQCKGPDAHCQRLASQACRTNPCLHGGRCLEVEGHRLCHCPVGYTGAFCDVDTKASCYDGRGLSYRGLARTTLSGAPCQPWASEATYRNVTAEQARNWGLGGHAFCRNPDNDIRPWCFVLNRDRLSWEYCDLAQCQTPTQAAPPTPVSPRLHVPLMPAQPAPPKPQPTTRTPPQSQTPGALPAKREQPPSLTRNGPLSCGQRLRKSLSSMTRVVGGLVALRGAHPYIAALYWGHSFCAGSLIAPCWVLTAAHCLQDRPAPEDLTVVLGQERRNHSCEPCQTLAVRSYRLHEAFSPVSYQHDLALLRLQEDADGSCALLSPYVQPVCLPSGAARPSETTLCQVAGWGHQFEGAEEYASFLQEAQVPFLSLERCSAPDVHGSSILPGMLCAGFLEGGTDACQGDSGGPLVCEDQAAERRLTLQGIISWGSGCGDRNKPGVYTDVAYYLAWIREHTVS
Test: The compound was measured for inhibitory activity against human coagulation factor XII
Parameter: K obs / 1 (M⁻¹ s⁻¹)
One number for each entry, in M⁻¹ s⁻¹.

Before answering, review these 3 worked examples.
Molecule	Target of assay	K obs / 1, M⁻¹ s⁻¹
N=C(N)c1ccc(C(NC(=O)[C@@H]2CCCN2C(=O)OCc2ccccc2)P(=O)(Oc2ccccc2)Oc2ccccc2)cc1 (some centres undefined)	UniProt:P00748	2.6
N=C(N)c1ccc(C(NC(=O)[C@@H]2CCCN2C(=O)[C@@H](N)Cc2ccccc2)P(=O)(Oc2ccccc2)Oc2ccccc2)cc1 (some centres undefined)	UniProt:P00748	2.8
CC(C)(C)OC(=O)N[C@@H](Cc1ccccc1)C(=O)N1CCC[C@H]1C(=O)NC(c1ccc(C(=N)N)cc1)P(=O)(Oc1ccccc1)Oc1ccccc1 (some centres undefined)	UniProt:P00748	52

Please turn your attention to the following entry.
Given the entry N=C(N)c1ccc(C(NC(=O)OCc2ccccc2)P(=O)(Oc2ccccc2)Oc2ccccc2)cc1 (centres undefined) , report its measured K obs / 1. 20

###

Biological target: Plasma kallikrein (Homo sapiens) (UniProt P03952)
Sequence (P03952 20-390 limits assumed): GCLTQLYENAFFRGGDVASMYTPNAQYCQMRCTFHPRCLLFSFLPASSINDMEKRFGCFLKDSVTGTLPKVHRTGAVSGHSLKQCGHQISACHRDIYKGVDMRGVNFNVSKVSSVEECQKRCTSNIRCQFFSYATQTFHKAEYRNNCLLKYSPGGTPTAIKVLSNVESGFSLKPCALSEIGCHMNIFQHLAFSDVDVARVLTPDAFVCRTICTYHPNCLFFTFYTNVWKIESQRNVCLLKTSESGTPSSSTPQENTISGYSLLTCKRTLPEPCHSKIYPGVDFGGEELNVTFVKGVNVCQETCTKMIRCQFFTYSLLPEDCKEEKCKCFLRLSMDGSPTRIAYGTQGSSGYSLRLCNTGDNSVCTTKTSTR
Sequence (P03952 391-638 limits assumed): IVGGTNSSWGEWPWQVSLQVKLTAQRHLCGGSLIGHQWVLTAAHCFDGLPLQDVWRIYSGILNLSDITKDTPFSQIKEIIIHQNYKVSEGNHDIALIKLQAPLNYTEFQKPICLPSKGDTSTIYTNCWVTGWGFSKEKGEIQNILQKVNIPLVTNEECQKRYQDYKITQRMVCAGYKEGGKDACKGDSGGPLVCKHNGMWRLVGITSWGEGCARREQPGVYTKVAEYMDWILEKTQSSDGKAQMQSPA
Assay: The compound was measured for inhibitory activity against human plasma kallikrein
Type: cell-free
Parameter: log10 K obs / 1 (log10 of the value in M⁻¹ s⁻¹)
Values below are the log10 of the recorded K obs / 1, with M⁻¹ s⁻¹ as the unit.

Molecule	Measured value
N=C(N)c1ccc(C(NC(=O)CNS(=O)(=O)c2ccc3ccccc3c2)P(=O)(Oc2ccccc2)Oc2ccccc2)cc1 (stereo not given)	2.98
CC(C)(C)OC(=O)N[C@@H](Cc1ccccc1)C(=O)N1CCC[C@H]1C(=O)NC(c1ccc(C(=N)N)cc1)P(=O)(Oc1ccccc1)Oc1ccccc1 (stereo not given in full)	2.20
N=C(N)c1ccc(C(NC(=O)[C@@H]2CCCN2C(=O)[C@@H](N)Cc2ccccc2)P(=O)(Oc2ccccc2)Oc2ccccc2)cc1 (stereo not given in full)	2.40

Answer for every listed entry: what is its log10 K obs / 1? The entries follow.
1. N=C(N)c1ccc(C(NC(=O)[C@@H]2CCCN2C(=O)OCc2ccccc2)P(=O)(Oc2ccccc2)Oc2ccccc2)cc1 (stereo not given in full)
2. N=C(N)c1ccc(C(NC(=O)OCc2ccccc2)P(=O)(Oc2ccccc2)Oc2ccccc2)cc1 (stereo not given)

[1.78, 4.26]
